Values were extracted from paper PMC4883067.

Quick note: these are IC50 numbers for system: rat brain MAO-B (Rattus norvegicus)
Sequence (P19643 whole entry): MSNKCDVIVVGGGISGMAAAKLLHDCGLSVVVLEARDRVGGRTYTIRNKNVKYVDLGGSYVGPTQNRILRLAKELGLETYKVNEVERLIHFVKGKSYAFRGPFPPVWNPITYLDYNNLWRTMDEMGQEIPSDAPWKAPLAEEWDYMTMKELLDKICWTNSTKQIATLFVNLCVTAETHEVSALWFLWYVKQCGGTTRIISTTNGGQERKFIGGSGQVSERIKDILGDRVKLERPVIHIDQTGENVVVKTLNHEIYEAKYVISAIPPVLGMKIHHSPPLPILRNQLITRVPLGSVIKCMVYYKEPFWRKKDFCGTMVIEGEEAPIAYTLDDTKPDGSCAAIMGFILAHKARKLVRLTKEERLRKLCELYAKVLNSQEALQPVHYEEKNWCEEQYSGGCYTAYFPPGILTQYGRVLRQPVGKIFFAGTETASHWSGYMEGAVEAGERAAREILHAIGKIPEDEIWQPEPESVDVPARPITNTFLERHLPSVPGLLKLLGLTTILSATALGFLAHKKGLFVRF

- Chem smiles: "COc1cc(C=CC(=O)CC(=O)C=Cc2ccc(O)c(OC)c2)ccc1O"
  Target under test: "rat brain MAO-B (Rattus norvegicus)"
  IC50, nM: 500
- Chem smiles: "O=c1oc2c(O)c(O)cc3c(=O)oc4c(O)c(O)cc1c4c23"
  Target under test: "rat brain MAO-B (Rattus norvegicus)"
  IC50, nM: 412
